target: Sialic acid-binding Ig-like lectin 9 (Homo sapiens)
experiment: Hs-Siglec9 ALPHAscreen SOP 20170721
Design: scale not given: direction of the effect not stated beside the values
conditions: 10 µM
Quick reference for Percent Effect among some compounds
Numbers only; they are read as %.

| compound | resultUnit | reportedResult |
| --- | --- | --- |
| Nc1nc2c(c(=O)[nH]1)CCN(C(=O)c1cccc3nccnc13)C2 | % | 9.88 |

In: Which Percent Effect reading was recorded for the compound `COc1ccc(C)cc1CNCc1ccc(-n2nc(C)cc2C)nc1` ?
Out: 0.511

In: Which Percent Effect reading was recorded for the compound `O=C(c1cccnc1-n1cncn1)N1CCN(CC2CC2)CC1` ?
Out: 20.3

In: Which Percent Effect reading was recorded for the compound CN(CC1(O)CCCN(CCC2CCCCC2)C1=O)C1CCOCC1 (stereo not given) ?
Out: 15.6

In: Which Percent Effect reading was recorded for the compound COc1cccc(CN2CCC(c3cc(O)nc(C)n3)C2)c1 (stereo not given) ?
Out: 3.66

In: Which Percent Effect reading was recorded for the compound Cc1cc(CN2CCC(CNC(=O)c3nccc4ccccc34)C2)[nH]n1 (stereo not given) ?
Out: 7.44

In: Which Percent Effect reading was recorded for the compound Cc1nc2cc(C3CCN(Cc4cccc(F)c4F)C3)nn2c(O)c1C (stereo not given) ?
Out: -3.49

In: Which Percent Effect reading was recorded for the compound `Cc1ccccc1CNC(=O)Cc1c(C)nc2cc(=O)[nH]n2c1C` ?
Out: 17.4

In: Which Percent Effect reading was recorded for the compound COc1ccc(NC(C)C(=O)NCCc2cccs2)cc1F (stereo not given) ?
Out: 6.34

In: Which Percent Effect reading was recorded for the compound `CCc1ccccc1C(=O)N1CCN(S(C)(=O)=O)[C@@H](C)C1` ?
Out: 7.54
